test system: Staphylococcus aureus; assay: Antimicrobial activity against Staphylococcus aureus ATCC BAA44 after 18 hrs
Peptide text beside a SMILES is read from it.
The threshold is 10 µM. Values of MBC50 beneath it are tagged y; values meeting or exceeding it are tagged n.

N=C(N)NCCC[C@H](N)C(=O)N[C@@H](Cc1c[nH]c2ccccc12)C(N)=O (H-Arg-Trp-NH2)    n

Prompt: Would you kindly verify if MBC50 of N=C(N)NCCC[C@H](NC(=O)[C@H](Cc1c[nH]c2ccccc12)NC(=O)[C@H](CCCNC(=N)N)NC(=O)[C@H](Cc1c[nH]c2ccccc12)NC(=O)[C@@H](N)CCCNC(=N)N)C(=O)N[C@@H](Cc1c[nH]c2ccccc12)C(N)=O (H-RWRWRW-NH2) is strictly less than 10 µM?
Completion: n
